target: FAAH (Rattus norvegicus, UniProt P97612)
Construct: cDNA by RT-PCR from brain cDNA (BD Biosciences)
Sequence (P97612 whole entry): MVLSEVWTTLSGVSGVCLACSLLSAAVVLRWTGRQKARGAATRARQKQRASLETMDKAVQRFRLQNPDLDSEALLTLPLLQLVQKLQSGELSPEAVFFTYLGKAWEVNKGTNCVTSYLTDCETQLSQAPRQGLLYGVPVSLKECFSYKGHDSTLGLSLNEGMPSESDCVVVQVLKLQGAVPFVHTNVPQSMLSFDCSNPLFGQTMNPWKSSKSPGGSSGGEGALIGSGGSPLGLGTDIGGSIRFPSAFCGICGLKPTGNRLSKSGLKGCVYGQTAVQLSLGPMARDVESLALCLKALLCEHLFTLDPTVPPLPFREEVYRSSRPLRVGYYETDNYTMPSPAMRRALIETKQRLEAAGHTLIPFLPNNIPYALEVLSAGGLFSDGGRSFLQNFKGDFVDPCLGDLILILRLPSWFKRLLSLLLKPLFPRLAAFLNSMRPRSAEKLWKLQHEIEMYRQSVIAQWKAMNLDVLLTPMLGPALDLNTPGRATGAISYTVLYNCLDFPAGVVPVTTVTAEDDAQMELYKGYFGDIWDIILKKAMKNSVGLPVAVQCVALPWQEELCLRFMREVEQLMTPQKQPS
assay_comment: FAAH whole cell assay, CHO cells expressing rat FAAH
pIC50: −log10 of the molar value.
measured_parameter: pIC50

compound: CS(=O)(=O)c1ccc(-c2nn(-c3ccncc3)cc2Sc2ccc(Cl)cc2)cc1 [Ex 5]
pIC50: 7.80

[A] [O-][n+]1cccc(-n2cc(Sc3ccc(Cl)cc3)c(-c3ccc(-c4ncon4)cc3)n2)c1 [Example 75]
[B] CS(=O)(=O)c1ccc(-c2nn(C3CCCC3)cc2Sc2ccc(Cl)cc2)cc1 [Ex 23]
Which is greater in pIC50, the first item A or the second item B ? Record your answer as the label of the chosen record.
B
(B: 7.07, A: 6.86)
